- TARGET_SYSTEM: T1, IIB-Fc:IIB-Fc homodimer (human ActRIIB ECD fused to human IgG1 Fc) (human, UniProt Q13705-1 19-134)
- T1 construct: activin receptor type IIB (ActRIIB) extracellular domain, human, aa 19-134 of NP_001097.2; Chains linked by disulfide bonds between the Fc domains; a form with murine IgG2a Fc was used only in mice; also called ActRIIB-Fc homodimer; ActRIIB-Fc; not shown: Fc (human IgG1), C-terminal, kept
- T1 sequence (Q13705 19-134): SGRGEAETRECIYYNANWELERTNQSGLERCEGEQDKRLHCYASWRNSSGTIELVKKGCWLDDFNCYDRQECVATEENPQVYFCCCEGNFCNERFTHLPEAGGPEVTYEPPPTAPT
- ASSAY_OVERVIEW: SPR; Biacore 8K, 37 °C; Fc-fusion receptor dimers captured by anti-human Fc antibody on a CM5 chip (100-150 RU); ligands injected in two-fold dilution series (300 s association, 600 s dissociation); HBS-EP+ supplemented with 350 mM NaCl and 0.5 mg/mL BSA; 1:1 Langmuir model with a term for mass transport
- CONDITION_SUMMARY: both partners purified
OBSERVED_PROPERTY: Kd (nM)

BMP10 (ligand, human, UniProt O95393 317-424, looked up, source: bought: R&D Systems) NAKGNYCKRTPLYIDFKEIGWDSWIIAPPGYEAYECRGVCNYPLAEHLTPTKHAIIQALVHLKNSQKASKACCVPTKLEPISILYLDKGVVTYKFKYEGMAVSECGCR: 0.0065

(I) BMP9 (ligand, human, UniProt Q9UK05 320-429, looked up, source: generated in house) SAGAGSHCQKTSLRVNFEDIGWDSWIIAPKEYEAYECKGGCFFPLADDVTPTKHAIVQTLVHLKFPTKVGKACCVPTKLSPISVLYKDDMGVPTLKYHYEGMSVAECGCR
(II) GDF11 (ligand, human, UniProt O95390 299-407, looked up, source: generated in house) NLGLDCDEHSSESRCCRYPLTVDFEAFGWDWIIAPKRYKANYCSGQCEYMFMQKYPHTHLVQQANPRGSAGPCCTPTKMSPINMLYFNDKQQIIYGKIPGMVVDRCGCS
Task: Which value of Kd is smaller, the one for I or the one for II ? Reply briefly: the label of your chosen item.
Result: II
(II: 0.0039 nM, I: 0.0933 nM)
